Tested on: ACHN renal
Assay: NCI tumour cell line growth inhibition, 48 h; in the data active = GI50 below about 0.43 µM; inactive = the rest
Log the outcome using a class from active, inactive

Solved entries (count: 2):
C=C1C(=O)O[C@H]2[C@H]1CC/C(Cn1cc(-c3ccccc3)nn1)=C\CC[C@@]1(C)O[C@@H]21 inactive
S=C(Nc1ccc(Cl)cc1)Nc1ccc(-c2nc3ccccc3[nH]2)cc1 inactive

Now for another entry.
What did this assay record as the result for O=C(Oc1ccc(CCl)cc1)c1ccccc1 ?
active

---

Tested on: SK-MEL-5 melanoma
Assay: NCI tumour cell line growth inhibition, 48 h; in the data active = GI50 below about 0.43 µM; inactive = the rest
Log the outcome using a class from active, inactive

Solved entries (count: 6):
COMPOUND	ANSWER_LABEL
O=C(Nc1ccc(Cl)cc1)c1cc2ccccc2cc1O	inactive
C[N+](C)(CCCCCC[N+](C)(C)CCCN1C(=O)c2cc3ccccc3cc2C1=O)CCCN1C(=O)c2ccccc2C1=O	inactive
C=C(CN1CCc2ccccc2C1)c1ccc(C(=O)Nc2ccc(N)cc2)cc1	inactive
C=C1C(=O)O[C@H]2[C@H]1CC/C(Cn1cc(-c3ccccc3)nn1)=C\CC[C@@]1(C)O[C@@H]21	inactive
[N-]=[N+]=NC1C(Br)C(=O)NC(=O)N1[C@H]1C[C@H](O)[C@@H](CO)O1 (stereo not given in full)	inactive
COc1ccc2[nH]c(Cl)c(/C=C3/C(=O)N(C)c4ccccc43)c2c1	inactive

What did this assay record as the result for CCSc1nc(N=Cc2cccs2)c2cn[nH]c2n1 ?
inactive

What did this assay record as the result for COc1ccc(-c2nc(-c3cn(C)c4ncccc34)cs2)cc1 ?
inactive

What did this assay record as the result for CC1(C)N=C(N)N=C(N)N1c1cc(Cl)ccc1Cl ?
inactive

What did this assay record as the result for O=c1cc(-c2ccccc2)nc2n1CCN2Cc1ccccc1 ?
inactive

What did this assay record as the result for S=C(N/N=C/c1ccccn1)Nc1ccccn1 ?
inactive

What did this assay record as the result for Oc1cc2cccc[n+]2c2cccc(Cl)c12 ?
inactive

What did this assay record as the result for CN(C)Cc1ccc(C(=O)Nc2ccc3ncnc(Nc4ccc(Oc5cccc(F)c5)c(Cl)c4)c3c2)cc1 ?
inactive

---

Test system: SW-620 colon
Assay: NCI tumour cell line growth inhibition, 48 h
Would you kindly list TGI for each of these compounds?

COMPOUND	TGI
Cc1ccc(S(=O)(=O)NNC(=S)Nc2cccc3ccccc23)cc1	> 100 µM
S=C(Nc1cccc(Cl)c1)Nc1ccccn1	> 100 µM
CC(C)(O)C1OCC(C2CCC3(C)C4=CCC5C(C)(C)C(O)CCC5(C)C4CCC23C)CC1O (stereo unspecified)	28.5 µM
COC(=N)C12C(N)=NC(OC)(OC)C1(C#N)C21C(=O)N(c2ccccc2)N=C1C (stereo unspecified)	> 100 µM
O=C1C(=O)c2ccccc2C(O)=C1C(CCc1ccccc1)C1=C(O)c2ccccc2C(=O)C1=O	> 100 µM

Missing value: TGI, SW-620 colon, entry O=C(Cc1ccccc1)c1ccc2[nH]c(=O)oc2c1 . Fill in?
> 100 µM

---

Test system: LOX IMVI melanoma
Assay: NCI tumour cell line growth inhibition, 48 h
Would you kindly list TGI for each of these molecules?

MOLECULE	TGI
COC(=O)CC1C(=O)OCc2c1cc1n(c2=O)Cc2c-1nc1ccccc1c2OC (stereo not drawn)	> 100 µM
CC(C)CC1c2[nH]c3ccccc3c2C[C@H]2C(=O)NC(CCC(=O)OC(C)(C)C)C(=O)N12 (stereo partly drawn)	60.6 µM

The following molecules each have a reported value; give each one's TGI.
1. CC(=O)OC(C)(C)/C=C/C(=O)[C@](C)(O)[C@H]1[C@H](O)C[C@@]2(C)[C@@H]3CC=C4[C@@H](C[C@H](O)C(=O)C4(C)C)[C@]3(C)C(=O)C[C@]12C
2. O=C1/C(=C\c2ccc(-c3ccc(Cl)cc3Cl)o2)SC2N=C(COc3ccc(Cl)cc3)NN12 (stereo not drawn)
3. Fc1ccc(-c2ccc(-c3nnc(-c4cc(F)c(Cl)cc4Cl)o3)o2)cc1Cl
4. COc1ccc(/C=C\c2cc(OC)c(OC)c(OC)c2)cc1OCC(=O)Nc1nc2ccc(C(F)(F)F)cc2s1
5. COC(=O)C1=C(O)C(O)=C(C(=O)OC)C1

1. < 0.01 µM
2. > 100 µM
3. 48.9 µM
4. > 100 µM
5. > 100 µM

The following molecules each have a reported value; give each one's TGI.
1. O=C(Nc1ncc(Cc2ccccc2Cl)s1)c1ccc2c(c1)OCCO2
2. C[C@H]1CCC/C=C/[C@@H]2C[C@H](O)C[C@H]2[C@H](O)[C@@H](S(=O)CCN(C)C)CC(=O)O1 (stereo partly drawn)
3. CN(C)Cc1ccc(C(=O)Nc2ccc3ncnc(Nc4ccc(Oc5cccc(F)c5)c(Cl)c4)c3c2)cc1

1. > 100 µM
2. > 100 µM
3. 3.15 µM

---

Test system: RXF 393 renal
Assay: NCI tumour cell line growth inhibition, 48 h
READOUT_KIND: TGI

COMPOUND	TGI
C=C(CN1CCc2ccccc2C1)c1ccc(C(=O)Nc2ccc(N)cc2)cc1	91.4 µM
CS(=O)c1ccc(COP(N)(=O)N(CCCl)CCCl)cc1 (stereo not given)	> 100 µM
O=C1CCCc2cc3c(cc21)CCC3C(=O)O (stereo not given)	> 100 µM
CCOC(=O)CCC(NC(=O)c1ccc(Nc2nc3cc(C(F)(F)F)ccc3nc2-c2ccccc2)cc1)C(=O)OCC (stereo not given)	> 100 µM

Now consider the entry below.
Bench note: what TGI did CC(=O)Nc1ccc(C2[C@H]3C(=O)N(c4ccc(Cc5ccc(N6C(=O)[C@@H]7ON(c8ccccc8)C(c8ccc(NC(C)=O)cc8)[C@@H]7C6=O)cc5)cc4)C(=O)[C@H]3ON2c2ccccc2)cc1 (stereo not given in full) show?
> 100 µM

---

Tested on: ACHN renal
Assay: NCI tumour cell line growth inhibition, 48 h
READOUT_KIND: TGI

COMPOUND	TGI
CC(C)CC1c2[nH]c3ccccc3c2C[C@H]2C(=O)NC(CCC(=O)OC(C)(C)C)C(=O)N12 (stereo partly specified)	> 100 µM
Cn1c(=O)c2[nH]c(CS(=O)(=O)Cc3nc4c([nH]3)c(=O)n(C)c(=O)n4C)nc2n(C)c1=O	> 100 µM
Cc1ccc2c(N)c(C(=O)N[C@H]3CCc4cc(N5CC6CCC(C5)N6)ccc4C3)sc2n1	2.01 µM
COc1nc(C)cc2c(=O)n(-c3ccccc3)n(CCCN3CCN(c4ccc(Cl)cc4)CC3)c(=O)c12	> 50 µM
COc1ccc2c3ccc4c(c3n(C)c2c1)C(=O)c1ccccc1C4=O	> 100 µM
CC(=O)N1c2ccccc2Sc2cc(C(O)(C(F)(F)F)C(F)(F)F)ccc21	> 10 µM
CCN(CC)CCOc1ccc(/C=C2\CC3C4CC=C5C[C@@H](N6CCCC6)CC[C@]5(C)C4CC[C@]3(C)[C@H]2O)cc1OC (stereo partly specified)	26.2 µM
[N-]=[N+]=NC1C(Br)C(=O)NC(=O)N1[C@H]1C[C@H](O)[C@@H](CO)O1 (stereo partly specified)	> 100 µM
O=C(Cc1ccccc1)c1ccc2[nH]c(=O)oc2c1	> 100 µM
OC1CC(O)c2c(Cl)sc(Cl)c21 (stereo unspecified)	> 100 µM

The following compounds each have a reported value; give each one's TGI.
1. COC(=O)N/N=C/c1oc(-c2cccc([N+](=O)[O-])c2)c(-c2cccc([N+](=O)[O-])c2)c1[N+](=O)[O-]
2. O=C1OC(=O)C2C1C1(c3ccccc3)C(c3ccccc3)=C(c3ccccc3)C2(c2ccccc2)S1=O (stereo unspecified)
3. CCOC(=O)c1c(NC(=O)Nc2ccccc2)c(C(N)=O)c2n1CCCCC2
4. CN(C)c1ccc2c3c(c(=O)oc2c1)CCC3
5. O=C1C(=O)N(c2ccc(Cl)c(Cl)c2)C(=O)C(=O)C1c1nc2ccccc2o1
6. CCOP(=O)(OCC)/C(C#N)=C/c1ccco1
7. O=C(O)c1cc2c(cn1)[nH]c1ccccc12

1: > 100 µM; 2: > 100 µM; 3: > 100 µM; 4: > 100 µM; 5: > 100 µM; 6: > 100 µM; 7: > 100 µM

The following compounds each have a reported value; give each one's TGI.
1. CC(C)C(N=Cc1ccccc1O)C(=O)O (stereo unspecified)
2. O=c1c2cccnc2nc2ccc3c[nH][nH]c3c12

1: > 100 µM; 2: > 10 µM

The following compounds each have a reported value; give each one's TGI.
1. O=c1cc2ccccc2nn1-c1ccccc1Cl
2. O=C(/C=C/c1ccc(O)cc1)NCCc1ccc(O)cc1

1: > 100 µM; 2: > 12.5 µM

---

Test system: SK-OV-3 ovarian
Assay: NCI tumour cell line growth inhibition, 48 h
Would you kindly list TGI for each of these compounds?

Completed entries (count: 3):
COMPOUND	VALUE
COc1cc2cc(C(=O)N3CC(CCl)c4ccc(NCCN)cc43)[nH]c2c(OC)c1OC (centres undefined)	1.16 µM
CC1OC(O[C@H]2CC[C@]3(C)[C@H]4CC=C5[C@@H]6[C@@H](C)[C@H](C)CC[C@]6(C(=O)O)CC[C@@]5(C(=O)O)[C@]4(C)CC[C@H]3C2(C)C)C(O)C(O)C1O (some centres undefined)	> 75 µM
O=C1N=C(c2ccccc2)O/C1=C\c1ccccc1	> 100 µM

Now consider the entry below.
Missing value: TGI, SK-OV-3 ovarian, entry COC1OC(CO)C(O)C(OC(=O)c2cc(O)c(O)c(O)c2)C1OC(=O)c1cc(O)c(O)c(O)c1 (centres undefined) . Fill in?
> 100 µM
